assay: in vivo; settings: BALB/c nude, mouse, in vivo, iv, total radioactivity, uptake Spleen
Listing of recorded tissue uptake at 24 h by entry.
measured_parameter: tissue uptake at 24 h (%ID/g)

>  <compound>
C[C@@H](O)[C@H](NC(=O)[C@@H]1CSSC[C@H](NC(=O)[C@@H](Cc2ccccc2)NC(=O)CCOCCOCCOCCNC(=O)[C@H](CCCCNC(=O)c2cccc(NC(=O)N[C@@H]3CN(C4CCCCC4)c4ccccc4N(CC(=O)C(C)(C)C)C3=O)c2)NC(=O)CN2CCN(CC(=O)O)CCN(CC(=O)O)CCN(CC(=O)O)CC2)C(=O)N[C@@H](Cc2ccc(O)cc2)C(=O)N[C@H](Cc2c[nH]c3ccccc23)C(=O)N[C@@H](CCCCN)C(=O)N[C@@H]([C@@H](C)O)C(=O)N1)C(=O)O [Compound I-38, DOTA-K(Z360)-PEG3-f[CYwKTC]T-OH]

>  <measured_parameter>
tissue uptake at 24 h

>  <endpoint_value>
0.2

$$$$
>  <compound>
C[C@@H](O)[C@H](NC(=O)[C@@H]1CSSC[C@H](NC(=O)[C@@H](Cc2ccccc2)NC(=O)COCCOCCNC(=O)[C@H](CCCCNC(=O)[C@H](CCC(=O)O)NC(=O)c2cccc(NC(=O)N[C@@H]3CN(C4CCCCC4)c4ccccc4N(CC(=O)C(C)(C)C)C3=O)c2)NC(=O)CN2CCN(CC(=O)O)CCN(CC(=O)O)CCN(CC(=O)O)CC2)C(=O)N[C@@H](Cc2ccc(O)cc2)C(=O)N[C@H](Cc2c[nH]c3ccccc23)C(=O)N[C@@H](CCCCN)C(=O)N[C@@H]([C@@H](C)O)C(=O)N1)C(=O)O [Compound I-27, DOTA-K(-E-Z360)-OEG-f[CYwKTC]T-OH]

>  <measured_parameter>
tissue uptake at 24 h

>  <endpoint_value>
0.44

$$$$
>  <compound>
C[C@@H](O)[C@H](NC(=O)[C@@H]1CSSC[C@H](NC(=O)[C@@H](Cc2ccccc2)NC(=O)COCCOCCNC(=O)[C@H](CCCCNC(=O)[C@H](CCC(=O)O)NC(=O)c2cccc(NC(=O)N[C@@H]3CN(C4CCCCC4)c4ccccc4N(CC(=O)C(C)(C)C)C3=O)c2)NC(=O)CN2CCN(CC(=O)O)CCN(CC(=O)O)CCN(CC(=O)O)CC2)C(=O)N[C@@H](Cc2ccc(O)cc2)C(=O)N[C@H](Cc2c[nH]c3ccccc23)C(=O)N[C@@H](CCCCN)C(=O)N[C@@H]([C@@H](C)O)C(=O)N1)C(N)=O [Compound I-3, DOTA-K(-E-Z360)-OEG-f[CYwKTC]T-NH2]

>  <measured_parameter>
tissue uptake at 24 h

>  <endpoint_value>
0.3

$$$$
>  <compound>
C[C@@H](O)[C@H](NC(=O)[C@@H]1CSSC[C@H](NC(=O)[C@@H](Cc2ccccc2)NC(=O)CCOCCOCCOCCOCCOCCOCCNC(=O)[C@H](CCCCNC(=O)c2cccc(NC(=O)N[C@@H]3CN(C4CCCCC4)c4ccccc4N(CC(=O)C(C)(C)C)C3=O)c2)NC(=O)CN2CCN(CC(=O)O)CCN(CC(=O)O)CCN(CC(=O)O)CC2)C(=O)N[C@@H](Cc2ccc(O)cc2)C(=O)N[C@H](Cc2c[nH]c3ccccc23)C(=O)N[C@@H](CCCCN)C(=O)N[C@@H]([C@@H](C)O)C(=O)N1)C(=O)O [Compound I-40, DOTA-K(Z360)-PEG6-f[CYwKTC]T-OH]

>  <measured_parameter>
tissue uptake at 24 h

>  <endpoint_value>
0.3

$$$$
